From: patent US10696692B2

target: NAMPT (Homo sapiens (Human)); assay: Assay 1: Biochemical Inhibition Assay (NAMPT enzymatic reaction, NMN quantified by mass spectrometry); conditions: read-out: Biochemical (IC50);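 further: recombinant His-tagged human NAMPT preincubated with compound 15 min, then reacted 30 min at rt with 1 µM NAM, 100 µM PRPP, 2.5 mM ATP, NMN product read by RapidFire MS, normalized to L-Cystathionine internal standard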
Sequence (P43490 whole entry): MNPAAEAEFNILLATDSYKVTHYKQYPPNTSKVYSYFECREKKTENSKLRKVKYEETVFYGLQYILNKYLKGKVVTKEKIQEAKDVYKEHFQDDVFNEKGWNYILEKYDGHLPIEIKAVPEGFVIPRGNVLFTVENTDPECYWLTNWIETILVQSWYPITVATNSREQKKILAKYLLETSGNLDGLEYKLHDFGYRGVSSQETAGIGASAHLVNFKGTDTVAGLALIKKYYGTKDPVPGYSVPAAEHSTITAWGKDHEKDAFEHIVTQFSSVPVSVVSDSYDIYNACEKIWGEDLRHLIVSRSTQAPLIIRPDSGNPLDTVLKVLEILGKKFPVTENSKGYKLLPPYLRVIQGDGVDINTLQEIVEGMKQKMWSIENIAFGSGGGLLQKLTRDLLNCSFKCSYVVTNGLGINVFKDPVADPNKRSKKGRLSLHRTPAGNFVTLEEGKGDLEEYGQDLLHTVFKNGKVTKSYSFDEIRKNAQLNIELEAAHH
Would you mind classing the entries by IC50? Ranges: interval 1 = under 10 nM, interval 2 = from 10 nM up to 100 nM, interval 3 = 100 nM and over

*Q* Input O=C(NCc1ccc(S(=O)(=O)N2CCCCC2)cc1)c1ccn2cncc2c1 [Example 308] ; output its category
*A* interval 3

*Q* Place this molecule in its band: CC(=O)N1CCC(S(=O)(=O)c2ccc(CNC(=O)c3cnc4[nH]ncc4c3)cc2)C1 (stereo not shown) [Example 348]
*A* interval 3

*Q* Entry CC(C)CN1CCC([S+]([O-])c2ccc(CNC(=O)c3cnc4nccn4c3)cc2)CC1 (stereo not shown) [Example 188] belongs to which category?
*A* interval 1

*Q* Which category does the recorded IC50 put CC(C)C(=O)N1CCC(S(=O)(=O)c2ccc(CNC(=O)c3cc4ccncc4o3)cc2)CC1 [Example 313] in?
*A* interval 2

*Q* Category lookup for the molecule CC(C)(C)OC(=O)N1CCCCC12CCN(S(=O)(=O)c1ccc(CNC(=O)c3ccc4nccn4c3)cc1)C2 (stereo not shown) [Example 243]
*A* interval 2

*Q* Bin this entry: O=C(NCc1ccc(S(=O)(=O)N2CCC(O)CC2)cc1)c1cnc2nccn2c1 [Example 29]
*A* interval 1

*Q* Classify this molecule: CC(C)(C)OC(=O)N1CCCC2(C1)CN(S(=O)(=O)c1ccc(CNC(=O)c3ccc4nccn4c3)cc1)C2 [Example 238]
*A* interval 2

*Q* Please report the category associated with O=C(NCc1ccc(S(=O)(=O)C2CCCOC2)cc1)c1cc2cnccc2[nH]1 (racemic) [Example 154] , nothing else.
*A* interval 2

*Q* # bin label for CN1CCN(C(=O)C2CCN(S(=O)(=O)c3ccc(CNC(=O)c4ccc5nccn5c4)cc3)CC2)CC1 [Example 109]
*A* interval 1

*Q* Form: Item = O=C(NCc1ccc(S(=O)(=O)N2CCOC3CNCC32)cc1)c1ccc2nccn2c1 (stereo not shown) [Example 335] ; Class = ?
*A* interval 3

*Q* Place this molecule in its band: O=C(NCc1ccc(S(=O)(=O)N2CCC[C@@H](O)C2)cc1)c1ccc2nccn2c1 [Example 53]
*A* interval 2

*Q* Input O=C(NCc1ccc(S(=O)(=O)C2CCCN(C(=O)c3ccccc3)C2)cc1)c1cnc2[nH]ncc2c1 (stereo not shown) [Example 350] ; output its category
*A* interval 3

*Q* Place this molecule in its band: O=C(NCc1ccc(S(=O)(=O)N2C[C@@H]3CCO[C@@H]3C2)cc1)c1cnc2[nH]ncc2c1 (racemic) [Example 178]
*A* interval 3

*Q* Could you place O=C(NCc1ccc(S(=O)(=O)N2CCOC3(CCNCC3)C2)cc1)c1ccc2nccn2c1 [Example 319] in its proper category? Many thanks.
*A* interval 3

*Q* Please classify: O=C(NCc1ccc(S(=O)(=O)N2CC3CCC(C2)O3)cc1)c1cnc2nccn2c1 [Example 26]
*A* interval 1
